Where do the numbers come from? From PubChem BioAssay (NCATS).

# System: UISO
# ASSAY_PROTOCOL: qHTS assay to identify novel small-molecules to repurpose for Merkel cell carcinoma treatment (AID 1296009); further: nearly all actives have a fitted effect of over 60% in size
# CONDITION_DESCRIPTION: MCC and control cell lines, CellTiter-Glo viability, 72 h; series mostly up to 46 µM
Inconclusive results are not listed. Active and inactive are the calls of the source. The call rests on the fitted dose curve; in most records, active means well fitted inhibition curve with a large enough effect; inconclusive means small, poorly fitted or top-dose-only effect; inactive means flat fitted curve, though single readings scatter.
Outcome (select one): true (1) for active, false (0) for inactive

> print(dat)
                                   molecule  qualitative.label
1  CC(NCCc1ccc(O)cc1)C(O)c1ccc(O)cc1 (centres undefined)          false (0)

Request: Called result for CCC(=O)N1CCN(c2ccc(-n3c(=O)ccc4cnc5ccc(-c6cnc7ccccc7c6)cc5c43)cc2C(F)(F)F)CC1
Result: true (1)

Request: Assay result, entry COc1ccc(C=CC(=O)Nc2ccccc2C(=O)O)cc1OC — outcome?
Result: false (0)

Request: Answer briefly: the call reported for Cc1ccccc1C(C(=O)NC1CCCCC1)N(C(=O)CNc1ccc(C#N)cc1)c1cccc(F)c1 (centres undefined) in this assay.
Result: false (0)

Request: In this assay, the call recorded for CCN1C[C@H](C)n2c(c(O)c3c(=O)n(Cc4ccc(F)c(Cl)c4)nc(C(=O)NC)c32)C1=O was what?
Result: false (0)

Request: For OC[C@H]1O[C@@H](O[C@H]2[C@@H](O)[C@@](O)(CO)O[C@@H]2CO)[C@H](O)[C@@H](O)[C@@H]1O , which call appears in the assay record?
Result: false (0)

Request: How did this test come out for CC(C)C[C@@H](N)[C@H](O)C(=O)N[C@H](C(=O)N[C@H](C(=O)N[C@@H](CC(=O)O)C(=O)O)C(C)C)C(C)C ?
Result: false (0)

Request: What outcome does the record of this test show for C[C@H]1COC2=C1C(=O)C(=O)c1c2ccc2c1CCCC2(C)C ?
Result: false (0)

Request: I'd appreciate the recorded outcome for Cc1cc2nc3c(=O)[nH]c(=O)nc-3n(CC(O)C(O)C(O)CO)c2cc1C (centres undefined) from this test.
Result: false (0)
